Test system: LNCaP tumor xenograft-bearing CB17-SCID mice
Assay: Biodistribution in LNCaP tumor xenograft-bearing CB17-SCID mice
Details: 24 h p.i.
Observation type: Biodistribution Blood
Output should be the measured figure followed by the unit it is expressed in.

[Q] Give LNCaP tumor xenograft-bearing CB17-SCID mice Biodistribution Blood for CC(C)(C)[Si](F)(c1ccc(C(=O)NCC(NC(=O)CN2CCN(CC(=O)[O-])CCN(CC(=O)[O-])CCN(CC(=O)[O-])CC2)C(=O)NC(CCCCNC(=O)CCC(=O)NCCCC(NC(=O)CCC(NC(=O)NC(CCc2nnn[nH]2)C(=O)O)C(=O)O)C(=O)O)C(=O)O)cc1)C(C)(C)C.[177Lu+3] (centres unmarked) [[^177Lu]Lu-11, [^177Lu]Lu-Tetrazole Derivative 11]
[A] 0.00 ± 0.00 % ID/g

Continuing:
[Q] What is its Biodistribution Blood for LNCaP tumor xenograft-bearing CB17-SCID mice? Entry: CCCCCC[C@H](NC(=O)CC[C@H](NC(=O)N[C@@H](CCC(=O)N[C@H](CCCNC(=O)CCC(=O)NCCCC[C@@H](NC(=O)[C@@H](CNC(=O)c1ccc([Si](F)(C(C)(C)C)C(C)(C)C)cc1)NC(=O)CN1CCN(CC(=O)[O-])CCN(CC(=O)[O-])CCN(CC(=O)[O-])CC1)C(=O)O)C(=O)O)C(=O)O)C(=O)O)C(=O)O.[177Lu+3] [[^177Lu]Lu-6, [^177Lu]Lu-Proinhibitor II]
[A] 0.00 ± 0.00 % ID/g

----------
Tested on: LNCaP tumor xenograft-bearing CB17-SCID mice
Assay: Biodistribution in LNCaP tumor xenograft-bearing CB17-SCID mice
Conditions: 24 h p.i.
Observation type: Biodistribution Stomach (% ID/g)
One number for each entry, in % ID/g.

[Q] Consider the molecule CCCCCC[C@H](NC(=O)CC[C@H](NC(=O)N[C@@H](CCC(=O)N[C@H](CCCNC(=O)CCC(=O)NCCCC[C@@H](NC(=O)[C@@H](CNC(=O)c1ccc([Si](F)(C(C)(C)C)C(C)(C)C)cc1)NC(=O)CN1CCN(CC(=O)[O-])CCN(CC(=O)[O-])CCN(CC(=O)[O-])CC1)C(=O)O)C(=O)O)C(=O)O)C(=O)O)C(=O)O.[177Lu+3] [[^177Lu]Lu-6, [^177Lu]Lu-Proinhibitor II] and give its measured Biodistribution Stomach.
[A] 0.05

----------
Test system: LNCaP tumor xenograft-bearing CB17-SCID mice
Experiment: Biodistribution in LNCaP tumor xenograft-bearing CB17-SCID mice
Settings: 24 h p.i.
Observation type: Biodistribution Pancreas (% ID/g)
Give bare numbers, in % ID/g.

[Q] Please report the recorded Biodistribution Pancreas for CC(C)(C)[Si](F)(c1ccc(C(=O)NC[C@@H](NC(=O)CN2CCN(CC(=O)[O-])CCN(CC(=O)[O-])CCN(CC(=O)[O-])CC2)C(=O)N[C@H](CCCCNC(=O)CCC(=O)NCCC[C@@H](NC(=O)CC[C@H](NC(=O)O[C@@H](CCC(=O)O)C(=O)O)C(=O)O)C(=O)O)C(=O)O)cc1)C(C)(C)C.[177Lu+3] [[^177Lu]Lu-3, [^177Lu]Lu-Carbamate I] .
[A] 0.02

----------
System: LNCaP tumor xenograft-bearing CB17-SCID mice
Test: Biodistribution in LNCaP tumor xenograft-bearing CB17-SCID mice
Conditions: 24 h p.i.
Observation type: Biodistribution Adrenals (% ID/g)
Numbers only, in % ID/g.

The cases that follow already have their Biodistribution Adrenals on record.
[Q] # input compound: CCCCCC[C@H](NC(=O)CC[C@H](NC(=O)N[C@@H](CCC(=O)N[C@H](CCCNC(=O)CCC(=O)NCCCC[C@@H](NC(=O)[C@@H](CNC(=O)c1ccc([Si](F)(C(C)(C)C)C(C)(C)C)cc1)NC(=O)CN1CCN(CC(=O)[O-])CCN(CC(=O)[O-])CCN(CC(=O)[O-])CC1)C(=O)O)C(=O)O)C(=O)O)C(=O)O)C(=O)O.[177Lu+3] [[^177Lu]Lu-6, [^177Lu]Lu-Proinhibitor II] ; wanted: its Biodistribution Adrenals
[A] 0.04

[Q] Further, for CCCCCC[C@H](NC(=O)[C@H](CCC(=O)O)NC(=O)N[C@@H](CCC(=O)N[C@H](CCCNC(=O)CCC(=O)NCCCC[C@@H](NC(=O)[C@@H](CNC(=O)c1ccc([Si](F)(C(C)(C)C)C(C)(C)C)cc1)NC(=O)CN1CCN(CC(=O)[O-])CCN(CC(=O)[O-])CCN(CC(=O)[O-])CC1)C(=O)O)C(=O)O)C(=O)O)C(=O)O.[177Lu+3] [[^177Lu]Lu-7, [^177Lu]Lu-Proinhibitor III] ?
[A] 0.03

Now, please, on to the next compound.
[Q] Please give the measured Biodistribution Adrenals for this compound: CC(C)(C)[Si](F)(c1ccc(C(=O)NC[C@@H](NC(=O)CN2CCN(CC(=O)[O-])CCN(CC(=O)[O-])CCN(CC(=O)[O-])CC2)C(=O)N[C@H](CCCCNC(=O)CCC(=O)NCCC[C@@H](NC(=O)CC[C@H](NC(=O)O[C@@H](CCC(=O)O)C(=O)O)C(=O)O)C(=O)O)C(=O)O)cc1)C(C)(C)C.[177Lu+3] [[^177Lu]Lu-3, [^177Lu]Lu-Carbamate I]
[A] 0.04

----------
System: LNCaP tumor xenograft-bearing CB17-SCID mice
Assay: Biodistribution in LNCaP tumor xenograft-bearing CB17-SCID mice
Settings: 24 h p.i.
Observation type: Biodistribution Intestine (% ID/g)
One number for each entry, in % ID/g.

# example entries with known answers
[Q] Param readout= Biodistribution Intestine; system= LNCaP tumor xenograft-bearing CB17-SCID mice; entry= CSCC[C@H](NC(=O)CC[C@H](NC(=O)N[C@@H](CCC(=O)N[C@H](CCCNC(=O)CCC(=O)NCCCC[C@@H](NC(=O)[C@@H](CNC(=O)c1ccc([Si](F)(C(C)(C)C)C(C)(C)C)cc1)NC(=O)CN1CCN(CC(=O)[O-])CCN(CC(=O)[O-])CCN(CC(=O)[O-])CC1)C(=O)O)C(=O)O)C(=O)O)C(=O)O)C(=O)O.[177Lu+3] [[^177Lu]Lu-5, [^177Lu]Lu-Proinhibitor I] ; returns value.
[A] 0.55

[Q] Next: CC(C)(C)[Si](F)(c1ccc(C(=O)NCC(NC(=O)CN2CCN(CC(=O)[O-])CCN(CC(=O)[O-])CCN(CC(=O)[O-])CC2)C(=O)NC(CCCCNC(=O)CCC(=O)NCCCC(NC(=O)CCC(NC(=O)NC(CCc2nnn[nH]2)C(=O)O)C(=O)O)C(=O)O)C(=O)O)cc1)C(C)(C)C.[177Lu+3] (stereo not shown) [[^177Lu]Lu-11, [^177Lu]Lu-Tetrazole Derivative 11]
[A] 0.52

[Q] Now consider CCCCCC[C@H](NC(=O)[C@H](CCC(=O)O)NC(=O)N[C@@H](CCC(=O)N[C@H](CCCNC(=O)CCC(=O)NCCCC[C@@H](NC(=O)[C@@H](CNC(=O)c1ccc([Si](F)(C(C)(C)C)C(C)(C)C)cc1)NC(=O)CN1CCN(CC(=O)[O-])CCN(CC(=O)[O-])CCN(CC(=O)[O-])CC1)C(=O)O)C(=O)O)C(=O)O)C(=O)O.[177Lu+3] [[^177Lu]Lu-7, [^177Lu]Lu-Proinhibitor III] and answer again.
[A] 0.10

Next item in the queue.
[Q] What value of Biodistribution Intestine on LNCaP tumor xenograft-bearing CB17-SCID mice does CCCCCC[C@H](NC(=O)CC[C@H](NC(=O)N[C@@H](CCC(=O)N[C@H](CCCNC(=O)CCC(=O)NCCCC[C@@H](NC(=O)[C@@H](CNC(=O)c1ccc([Si](F)(C(C)(C)C)C(C)(C)C)cc1)NC(=O)CN1CCN(CC(=O)[O-])CCN(CC(=O)[O-])CCN(CC(=O)[O-])CC1)C(=O)O)C(=O)O)C(=O)O)C(=O)O)C(=O)O.[177Lu+3] [[^177Lu]Lu-6, [^177Lu]Lu-Proinhibitor II] have?
[A] 0.18

----------
System: LNCaP tumor xenograft-bearing CB17-SCID mice
Assay: Biodistribution in LNCaP tumor xenograft-bearing CB17-SCID mice
Settings: 24 h p.i.
Observation type: Biodistribution Liver
Answer as a quantity: numeral, then unit.

[Q] Any idea what its Biodistribution Liver is? The compound is CCCCCC[C@H](NC(=O)CC[C@H](NC(=O)N[C@@H](CCC(=O)N[C@H](CCCNC(=O)CCC(=O)NCCCC[C@@H](NC(=O)[C@@H](CNC(=O)c1ccc([Si](F)(C(C)(C)C)C(C)(C)C)cc1)NC(=O)CN1CCN(CC(=O)[O-])CCN(CC(=O)[O-])CCN(CC(=O)[O-])CC1)C(=O)O)C(=O)O)C(=O)O)C(=O)O)C(=O)O.[177Lu+3] [[^177Lu]Lu-6, [^177Lu]Lu-Proinhibitor II]
[A] 0.14 ± 0.02 % ID/g
